assay: qHTS of pediatric cancer cell lines to identify multiple opportunities for drug repurposing: Confirmatory screen for TC32 cells (AID 1347118); details: TC32 Ewing sarcoma cells viability qHTS; series mostly up to 45.9 µM;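 note: cells exposed to compound for 48 h before the read; nearly all actives have a fitted effect of over 65% in size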
Inconclusive results are not listed. Calls of active or inactive are those of the source. Calls come from the whole dose curve; as a rule, active = well fitted cell-killing curve with a large enough effect; inconclusive = small, poorly fitted or top-dose-only effect; inactive = no such curve, though single readings can be large or run the other way.
Outcome codes: yes (1) = active, no (0) = inactive

{"columns": ["compound", "discrete-label"],
 "data": [
  ["Oc1cc(-c2nc(-c3ccccc3)[nH]c2-c2ccncc2)ccc1Cl", "yes (1)"],
  ["CCS(=O)(=O)Nc1ccc2[nH]c(O)c(C(=Nc3ccc(CN4CCCCC4)cc3)c3ccccc3)c2c1", "yes (1)"],
  ["CCN(CC)Cc1ccc2cc(COC(=O)Nc3ccc(C(=O)NO)cc3)ccc2c1", "no (0)"],
  ["CC1(C)O[C@@H]2C[C@H]3[C@@H]4CCC5=CC(=O)C=C[C@]5(C)[C@@H]4[C@@H](O)C[C@]3(C)[C@]2(C(=O)CO)O1", "no (0)"],
  ["NC(=O)Nc1cc(-c2ccc(CN3CCOCC3)cc2)sc1C(N)=O", "yes (1)"],
  ["CC(C)C[C@H](NC(=O)[C@@H](NC(=O)c1cccc(-c2ccccc2)n1)[C@@H](C)O)B(O)O", "yes (1)"],
  ["COc1ccc(C[C@@H](C)[C@@H](C)Cc2ccc(OC)c(OC)c2)cc1OC", "yes (1)"],
  ["FC(F)c1nc2ccccc2n1-c1nc(N2CCOCC2)nc(N2CCOCC2)n1", "yes (1)"],
  ["CC(C)C[C@H](NC(=O)CNC(=O)c1cc(Cl)ccc1Cl)B1OC(=O)CC(CC(=O)O)(C(=O)O)O1 (some centres not stated)", "yes (1)"],
  ["Cn1cnc(=N)c2[nH]cnc21", "no (0)"],
  ["CS(=O)(=O)N1CCc2c(-c3cnc(N)nc3)nc(N3CCOCC3)nc21", "yes (1)"],
  ["Cc1[nH]c(C=C2C(=O)Nc3ccccc32)c(C)c1CCC(=O)O", "no (0)"],
  ["O=C(NCc1ccccc1)[C@H](Cc1ccccc1)NC(=O)[C@@H]1O[C@@H]1C(=O)NCCc1ccc(O)cc1", "yes (1)"],
  ["C[C@H](NCc1ccc2c(c1)nc(NC(=O)c1ccc(-c3cn[nH]c3)s1)n2CCc1ccccc1)C(C)(C)C", "yes (1)"],
  ["CC(=O)ON=C1C(c2c(O)[nH]c3cc(Br)ccc23)=Nc2ccccc21", "yes (1)"],
  ["CC[C@]12C=CCN3CC[C@@]4(c5cc([C@@]6(C(=O)OC)C[C@H]7C[C@@H](C(C)(F)F)CN(Cc8c6[nH]c6ccccc86)C7)c(OC)cc5N(C)[C@H]4[C@@](O)(C(=O)OC)[C@H]1OC(C)=O)[C@@H]32", "yes (1)"],
  ["CC(=O)O[C@@]12CO[C@H]1C[C@H](O)[C@@]1(C)C(=O)[C@H](O)C3=C(C)[C@@H](OC(=O)C(O)[C@@H](NC(=O)OC(C)(C)C)c4ccccc4)C[C@@](O)([C@@H](OC(=O)c4ccccc4)[C@@H]21)C3(C)C (some centres not stated)", "yes (1)"]
]}

###

assay: Quantitative High-Throughput drug screen in 47 multiple myeloma cell lines against the NCATS MIPE library collection: KMS26_JCRB cell viability assay (AID 1918975); settings: KMS26 myeloma cells viability, CellTiter-Glo ATP, 48 h; series mostly up to 45.8 µM; note: nearly all actives have a fitted effect of over 45% in size
Inconclusive results are not listed. Active and inactive are the calls of the source. Calls follow the shape of the dose curve; as a rule, active = well fitted cell-killing curve with a large enough effect; inconclusive = small, poorly fitted or top-dose-only effect, or effect the other way; inactive = no such curve, though single readings can be large or run the other way.
Outcome codes: active, inactive

{"columns": ["molecule", "discrete-label"],
 "data": [
  ["O=S(=O)(O)CCSSCCS(=O)(=O)O", "inactive"],
  ["CC(=O)N[C@H]1[C@@H]([C@H](O)[C@H](O)CO)OC(C(=O)O)=C[C@@H]1N=C(N)N", "inactive"],
  ["C=CC(=O)N1CCc2ccc(-n3c(=O)ccc4cnc5ccc(-c6cnn(C)c6)cc5c43)cc21", "active"],
  ["O=C1c2c(O)cccc2[C@@H]([C@@H]2O[C@H](CO)[C@@H](O)[C@H](O)[C@H]2O)c2cc(CO)cc(O)c21", "inactive"],
  ["C[C@@H]1[C@H](C)CC[C@]2(C(=O)O)CC[C@]3(C)C(=CC[C@@H]4[C@@]5(C)C[C@@H](O)[C@H](O)[C@@](C)(CO)[C@H]5CC[C@]43C)[C@@H]12", "inactive"],
  ["COc1cc(OC)cc(-c2ccc3ncc4ccc(=O)n(-c5ccc(N6CCNCC6)c(C(F)(F)F)c5)c4c3c2)c1", "active"],
  ["Cc1ncc(-c2ccnc(Nc3ccc(S(C)(=O)=O)cc3)n2)n1C(C)C", "active"],
  ["N[C@H]1CN(c2c(F)cc3c(=O)c(C(=O)O)cn(C4C[C@@H]4F)c3c2Cl)CC12CC2 (some centres not stated)", "active"],
  ["C[C@H](CCC(=O)O)[C@H]1CC[C@H]2[C@@H]3[C@H](O)C[C@@H]4C[C@H](O)CC[C@]4(C)[C@@H]3CC[C@]12C", "inactive"],
  ["N#CNC(=NCCCCCCOc1ccc(Cl)cc1)Nc1ccncc1", "active"],
  ["Oc1cc(-c2nc(-c3ccccc3)[nH]c2-c2ccncc2)ccc1Cl", "active"],
  ["CN(C)c1ccc(C(=O)NCCCCCCC(=O)NO)cc1", "active"],
  ["CON=C(C(=O)N[C@@H]1C(=O)N2C(C(=O)O)=C(CSC(=O)c3ccco3)CS[C@H]12)c1csc(N)n1", "inactive"],
  ["CC[C@H](CC[C@@H](C)[C@H]1CC[C@H]2[C@@H]3CC=C4C[C@@H](O)CC[C@]4(C)[C@@H]3CC[C@]12C)C(C)C", "inactive"],
  ["CC(C)(O)Cn1c(NC(=O)c2ccc(-c3cn[nH]c3)s2)nc2cc(CN3CCOCC3)ccc21", "active"],
  ["CCC(C(=O)O)C1CCC(C)C(C(C)C(O)C(C)C(=O)C(CC)C2OC3(C=CC(O)[C@@]4(CC[C@](C)(C5CC[C@@](O)(CC)C(C)O5)O4)O3)C(C)CC2C)O1 (some centres not stated)", "active"],
  ["Cc1cnc(Nc2ccc(CN3CCOCC3)cc2)nc1Nc1cccc(S(=O)(=O)NC(C)(C)C)c1", "active"]
]}

###

experiment: qHTS assay for measurement of the activity of small molecule inhibitors on Zika virus induced Caspase-3 activity in human astrocytoma cells (AID 1224859); conditions: SNB-19 ZIKV-induced caspase-3/7, luminescence, 6 h; series mostly up to 45.7 µM;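 note: plate controls were ZIKV-infected untreated cells for no effect and uninfected cells for full effect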
Calls of active or inactive are those of the source. The call rests on the fitted dose curve; in most records, active means well fitted inhibition curve with a large enough effect; inconclusive means small, poorly fitted or top-dose-only effect; inactive means no such curve, though single readings can be large or run the other way.
value-type: outcome

{"columns": ["molecule", "result-value"],
 "data": [
  ["C[C@@H]1[C@H](C)CC[C@]2(C(=O)O)CC[C@]3(C)C(=CC[C@@H]4[C@@]5(C)C[C@@H](O)[C@H](O)[C@@](C)(CO)[C@H]5CC[C@]43C)[C@@H]12", "inactive"],
  ["COc1cccc2c1C(=O)c1c(O)c3c(c(O)c1C2=O)C[C@@](O)(C(=O)CO)C[C@H]3O[C@H]1C[C@H](N)[C@H](O)[C@H](C)O1", "inactive"],
  ["Cc1cc(-c2nnc3n2CCCCC3)c(C)n1-c1ccccc1", "inactive"],
  ["CCN(CC)CCNC(=O)c1c(C)[nH]c(C=C2C(=O)Nc3ccc(F)cc32)c1C", "inactive"],
  ["CCNC(=O)c1cc2c(-c3cc(OCCN4CCCC4)c(Cl)cc3Cl)nc(N)nc2s1", "inactive"],
  ["O=C1NC(=O)[C@@H](c2cn3c4c(cccc24)CCC3)[C@H]1c1c[nH]c2ccccc12", "inactive"],
  ["C#Cc1cccc(Nc2ncnc3cc(OCCOC)c(OCCO)cc23)c1", "inactive"],
  ["Cc1noc(-c2ccc(CSCCC(=O)O)cc2)c1NC(=O)OC(C)c1ccccc1Cl (stereo not drawn)", "inactive"]
]}

###

assay: Quantitative High-Throughput drug screen in 47 multiple myeloma cell lines against the NCATS MIPE library collection: FR4_PLB cell viability assay (AID 1918924; note: nearly all actives have a fitted effect of over 35% in size); settings: FR4_PLB myeloma cells viability, CellTiter-Glo ATP, 48 h; series mostly up to 45.8 µM
Results filed as inconclusive are left out. Activity calls are given as the source filed them. Calls come from the whole dose curve; as a rule, active = well fitted cell-killing curve with a large enough effect; inconclusive = small, poorly fitted or top-dose-only effect, or effect the other way; inactive = no such curve, though single readings can be large or run the other way.
Outcome codes: active, inactive

{"columns": ["molecule", "discrete-label"],
 "data": [
  ["COc1cc(O)c2c(c1)C1OC1C[C@H](O)[C@H](O)C(=O)C=CC[C@H](C)OC2=O (stereo partly specified)", "active"],
  ["Cn1cnc2c(F)c(Nc3ccc(Br)cc3F)c(C(=O)NOCCO)cc21", "inactive"],
  ["O=C(C=CC#Cc1cccc(NS(=O)(=O)c2ccccc2)c1)NO", "active"],
  ["CC(C)N1[N]C(=C2C=c3cc(O)ccc3=N2)c2c(N)ncnc21", "active"],
  ["N#Cc1c(C2CCNCC2)cc(-c2c(O)cccc2OCC2CC2)nc1N", "active"],
  ["Nc1nc(=O)n([C@H]2C[C@H](O)[C@@H](CO)O2)cc1F", "inactive"],
  ["O=C1NC(=O)C(=Cc2ccc3nccc(-c4ccncc4)c3c2)S1", "active"],
  ["O=C1c2c(O)cccc2[C@@H]([C@@H]2O[C@H](CO)[C@@H](O)[C@H](O)[C@H]2O)c2cc(CO)cc(O)c21", "inactive"],
  ["FC(F)c1nc2ccccc2n1-c1nc(N2CCOCC2)nc(N2CCOCC2)n1", "active"],
  ["C[C@]12CC[C@@H]3c4ccc(O)cc4CC[C@H]3[C@H]1CC[C@H]2O", "active"],
  ["O=C(O)C=Cc1ccc(Cn2ccnc2)cc1", "inactive"]
]}
